Just for reference, PubChem BioAssay (NCI) is where these values come from.

# Test system: COLO 205 colon
# Measurement Description: NCI-60 one-dose screen, 48 h (100 = growth as untreated, 0 = no growth, -100 = all killed)
# Details: 10 µM unless noted
About 83,000 compounds went through this panel and 20% of them were active in at least one assay; those are over-represented in the sample as a whole.
Assay Metric: growth (%)
One number for each entry, in %.

# example entries with known answers
Compound Structure | Unit String | growth
COc1ccc2nc(Cl)c(/C=C/C(=O)c3ccc(NC(=O)CSc4nnc(-c5ccc(Cl)c(Cl)c5)n4-c4ccccc4)cc3)cc2c1 | % | 101
C=C1C(=O)O[C@H]2[C@H]1CC/C(COC(=O)NCCCCCCCCNC(=O)OC/C1=C/CC[C@@]3(C)O[C@H]3[C@H]3OC(=O)C(=C)[C@@H]3CC1)=C\CC[C@@]1(C)O[C@@H]21 | % | -64.9
Cc1ncc(C(=O)Nc2ccc(CN3CCN(C)CC3)c(C(F)(F)F)c2)cc1C#Cc1cnc(N)c2ccncc12 | % | -84.1
CCCCCCCC/C=C\CCCCCCCCOc1ccccc1CC(=O)NCC[N+]1(C)CCCCC1 | % | 23
COc1cccc(Nc2ccnc3[nH]c4ccc([N+](=O)[O-])cc4c23)c1 | % | 51.7
CC(C)[C@@]12C[C@@H](OC(=O)COC(=O)c3ccccc3)[C@@](C)(O1)[C@@H]1CC[C@@H](C)[C@H]1[C@@H]2OC(=O)/C=C/c1ccccc1 | % | 108
N#Cc1c(Nc2ccc(F)cc2)n[nH]c1-c1cccs1 | % | 128

Query string: Under COLO 205 colon: report growth of N#CCC1=NC(c2cccs2)=Nc2ccccc2S1 .
Result string: 107
